The reported numbers originate from paper PMC10064817.

experiment: in vivo; conditions: male, beagle, dog, iv, 1 mg/kg
metric: AUC(0-t) (µg·h/mL)
Answer with a number only, understood to be in µg·h/mL.

Ask: Tell us which AUC(0-t) value is on record for "COc1cc(O)c(C(=O)[C@@H]2[C@H](CC=C(C)C)C(C)=CC[C@H]2c2ccccc2)c(O)c1"
Reply: 181
